experimentalSystem: T1, native human IL-13 (human, UniProt P35225 35-146, limits assumed)
T1 construct: also called hIL-13
T1 sequence (P35225 35-146 limits assumed): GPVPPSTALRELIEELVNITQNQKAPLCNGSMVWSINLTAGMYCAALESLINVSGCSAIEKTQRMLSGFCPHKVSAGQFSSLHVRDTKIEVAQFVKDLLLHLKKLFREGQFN
assayNotes: KinExA, equilibrium in solution
// reported Kd for each item listed
Give the quantity in nM, number only.

Past entries and their recorded results:
# binder, Kd [nM]
measured = [
    ("mAb 623 (antibody, V domains shown, also called sc623) VH: EVQLVESGGGLVKPGGSLRLSCAASGFTFSNAWMSWVRQAPGKGLEWVGRIRSEIDGGTTNYAAPVKGRFTISRDDSKNTLYLQMNSLKTEDTAVYYCATDQVGAYYGDYYGMDVWGQGTTVTVSS VL: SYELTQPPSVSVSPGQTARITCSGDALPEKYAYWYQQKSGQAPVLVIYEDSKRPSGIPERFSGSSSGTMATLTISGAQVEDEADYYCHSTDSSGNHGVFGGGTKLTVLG", 0.024),
    ("mAb 713 (antibody, V domains shown) VH: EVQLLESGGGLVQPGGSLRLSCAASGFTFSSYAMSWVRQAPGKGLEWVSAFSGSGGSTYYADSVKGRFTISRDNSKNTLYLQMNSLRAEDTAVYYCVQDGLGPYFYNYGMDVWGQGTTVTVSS VL: SYELTQPPSVSVSPGQTASITCSGDKLGDKYTCWFQQKPGQSPVLVIYHDSKRPSGIPERFSGSNSGDTATLTISGTQAMDEADYYCQAWDSSTYVFGTGTKVTVLG", 0.0036),
    ("mAb 643 (antibody, V domains shown) VH: EVQLVESGGGLVKPGGSLRLSCAASGFTFSNAWMSWVRQAPGKGLEWVGRIRSEIDGGTTNYAAPVKGRFTISRDDSKNTLYLQMNSLRTEDTAVYYCATDQVGAYYGDYYGMDVWGQGTTVTVSS VL: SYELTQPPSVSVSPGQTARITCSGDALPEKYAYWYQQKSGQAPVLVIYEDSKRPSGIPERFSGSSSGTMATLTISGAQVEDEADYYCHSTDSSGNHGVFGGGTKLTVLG", 0.013),
]

The binder listed as mAb 731 (antibody, V domains shown, also called sc731) VH: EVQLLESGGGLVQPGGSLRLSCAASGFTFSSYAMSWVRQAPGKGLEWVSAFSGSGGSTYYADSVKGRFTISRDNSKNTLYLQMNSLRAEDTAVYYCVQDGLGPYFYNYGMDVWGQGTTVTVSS VL: SYELTQPPSVSVSPGQTASITCSGDKLGDKYACWFQQKPGQSPVLVIYHDSKRPSGIPERFSGSNSGDTATLTISGTQAMDEADYYCQAWDSSTYVFGTGTKVTVLG has a reported Kd of 0.0089
